Just for reference, ChEMBL document CHEMBL1157829 is where these values come from.

- measurementNotes: Bioavailability in Wistar rat at 3 mg/kg, po and 0.3 mg/kg, iv
- Type: ADME, organism-based
- measurementContext: in vivo
reportedMetric: bioavailability

{"compound": "CCC/N=C1\\S/C(=C\\c2ccc(OCCO)c(Cl)c2)C(=O)N1c1ccccc1C", "reported": "23%"}

bioavailability recorded for this compound, `CCC/N=C1\S/C(=C\c2ccc(O)c(Cl)c2)C(=O)N1c1ccccc1C` , is < 1%

Sure, the documented bioavailability for `CCC/N=C1\S/C(=C\c2ccc(OC[C@@H](O)CO)c(Cl)c2)C(=O)N1c1ccccc1C` is 35%

###

- measuredTarget: Sphingosine 1-phosphate receptor 3 (Homo sapiens, UniProt Q99500)
- Sequence (Q99500 whole entry): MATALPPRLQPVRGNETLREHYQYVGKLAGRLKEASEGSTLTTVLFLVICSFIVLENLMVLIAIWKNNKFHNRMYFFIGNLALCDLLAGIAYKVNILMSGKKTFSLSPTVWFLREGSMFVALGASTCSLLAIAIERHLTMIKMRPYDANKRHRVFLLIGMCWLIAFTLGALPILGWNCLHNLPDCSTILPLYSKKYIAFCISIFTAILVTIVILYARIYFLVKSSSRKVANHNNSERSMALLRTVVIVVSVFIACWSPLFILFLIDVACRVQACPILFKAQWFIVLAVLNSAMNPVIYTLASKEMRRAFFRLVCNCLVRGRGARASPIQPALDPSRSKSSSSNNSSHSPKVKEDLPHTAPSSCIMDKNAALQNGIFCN
- measurementNotes: Displacement of [33P]S1P from human recombinant S1P3 receptor expressed in HEK cells by scintillation counting
- Assay type: cell-based, HEK293
reportedMetric: pIC50
Expect pIC50 as a plain number equal to -log10 of the molar concentration.

# pIC50 (molecule: `CCCCCCCCCCCCC/C=C/[C@@H](O)[C@@H](N)COP(=O)(O)O` ) is 9.70

###

- measuredTarget: Sphingosine 1-phosphate receptor 5 (Homo sapiens)
- Sequence (Q9H228 whole entry): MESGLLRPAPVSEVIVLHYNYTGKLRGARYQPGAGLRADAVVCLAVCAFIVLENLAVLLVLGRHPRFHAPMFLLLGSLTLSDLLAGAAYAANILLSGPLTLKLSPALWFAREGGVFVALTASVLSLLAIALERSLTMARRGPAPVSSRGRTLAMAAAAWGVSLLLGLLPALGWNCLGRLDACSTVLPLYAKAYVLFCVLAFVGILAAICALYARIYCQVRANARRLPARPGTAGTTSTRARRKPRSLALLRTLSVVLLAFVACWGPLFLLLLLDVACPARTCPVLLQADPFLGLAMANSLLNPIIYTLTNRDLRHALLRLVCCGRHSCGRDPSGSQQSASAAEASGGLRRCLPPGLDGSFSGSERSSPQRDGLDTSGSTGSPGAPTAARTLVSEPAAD
- measurementNotes: Displacement of [33P]S1P from human recombinant S1P5 receptor expressed in CHO cells by scintillation counting
reportedMetric: IC50 (nM)
Record the value in nM, omitting the unit from your answer.

# IC50 of `CCC/N=C1\S/C(=C\c2ccc(OC[C@@H](O)CO)c(Cl)c2)C(=O)N1c1ccccc1C` = 142

###

- measurementNotes: Volume of distribution at steady state in Wistar rat at 10 mg/kg, po and 1 mg/kg, iv
- Format: ADME, organism-based
- measurementContext: in vivo, read-out: Vdss
reportedMetric: Vd (L/kg)
Supply the numeric figure in L/kg, leaving out any unit text.

{"compound": "CC(C)/N=C1\\S/C(=C\\c2ccc(OCCO)cc2)C(=O)N1c1ccccc1", "reported": 4}
{"compound": "Cc1ccccc1N1C(=O)/C(=C/c2ccc(O)c(Cl)c2)S/C1=N\\C(C)C", "reported": 3}

// next item, Vd requested
Kindly note the recorded Vd for CCC/N=C1\S/C(=C\c2ccc(OCC(O)CO)c(Cl)c2)C(=O)N1c1ccccc1C (racemic) , which is 5.6

###

- measurementNotes: Clearance in Beagle dog at 3 mg/kg, po and 0.3 mg/kg, iv
- Assay type: ADME, organism-based, Canis lupus familiaris
- measurementContext: in vivo
reportedMetric: clearance (mL/min/kg)
Field: numeric (mL/min/kg). Do not append units.

Please fill in: clearance reported for `CCC/N=C1\S/C(=C\c2ccc(OC[C@@H](O)CO)c(Cl)c2)C(=O)N1c1ccccc1C` = 1.3

###

Listed compounds paired with reported EC50
- measuredTarget: Sphingosine 1-phosphate receptor 3 (Homo sapiens, UniProt Q99500)
- measurementNotes: Agonist activity at human recombinant S1P3 receptor expressed in CHO cells by GTPgammaS binding assay
- Type: functional, cell-based
Number first, unit second.

Lab note: compound `Cc1ccc(N2C(=O)/C(=C/c3ccc(O)c(Cl)c3)S/C2=N\C(C)C)c(C)c1` tested on Sphingosine 1-phosphate receptor 3 (Homo sapiens, UniProt Q99500); recorded EC50 was 458 nM

Simply: `CC(C)/N=C1\S/C(=C\c2cccc(OCCO)c2)C(=O)N1c1ccccc1` , Sphingosine 1-phosphate receptor 3 (Homo sapiens, UniProt Q99500), EC50 = 531 nM

Measured EC50 for this entry `CCCCCCN1C(=O)/C(=C/c2ccc(O)c(Cl)c2)S/C1=N\C(C)C` on Sphingosine 1-phosphate receptor 3 (Homo sapiens, UniProt Q99500): 118 nM

Item: `COc1ccc(/C=C2\S/C(=N\C(C)C)N(c3ccccc3)C2=O)cc1OC` | System: Sphingosine 1-phosphate receptor 3 (Homo sapiens, UniProt Q99500) | EC50: 1380 nM

Observed EC50, Sphingosine 1-phosphate receptor 3 (Homo sapiens, UniProt Q99500), `CC(C)/N=C1\S/C(=C\c2ccc(O)c(Cl)c2)C(=O)N1c1cccnc1` : 228 nM
